EXPERIMENT_SUMMARY: Solubility in HEPES buffer
Format: physicochemical
CONDITION_INFO: pH 7.4; 0.05 N HEPES buffer in 0.1 N NaCl solution
MEASUREMENT_KIND: solubility

MOLECULE: CSCC[C@H](NC(=O)[C@H](Cc1ccccc1)NC(=O)CNC(=O)[C@@H](C)NC(=O)[C@@H](N)Cc1ccc(O)cc1)C(=O)N1CCC[C@H]1C(=O)N[C@@H](CC(C)C)C(=O)N[C@@H](Cc1c[nH]c2ccccc12)C(=O)OCc1cc(C(F)(F)F)cc(C(F)(F)F)c1
MEASUREMENT_KIND: solubility
EXPERIMENTAL_VALUE: < 0.2 µg/mL
--
MOLECULE: CSCC[C@H](NC(=O)[C@H](Cc1ccccc1)NC(=O)CNC(=O)[C@@H](C)NC(=O)[C@@H](N)Cc1ccc(O)cc1)C(=O)N1CCC[C@H]1C(=O)N[C@@H](CC(C)C)C(=O)N[C@@H](Cc1c[nH]c2ccccc12)C(=O)NCc1cc(C(F)(F)F)cc(C(F)(F)F)c1
MEASUREMENT_KIND: solubility
EXPERIMENTAL_VALUE: < 0.2 µg/mL

###

TARGET_OR_TEST_SYSTEM: human δ opioid receptors (hDOR) (Homo sapiens, UniProt P41143)
Construct: expressed in transfected cells; host or cells: HN9.10 neuroblastoma cell line, pCDNA3, neomycin-selected clones
Sequence (P41143 whole entry): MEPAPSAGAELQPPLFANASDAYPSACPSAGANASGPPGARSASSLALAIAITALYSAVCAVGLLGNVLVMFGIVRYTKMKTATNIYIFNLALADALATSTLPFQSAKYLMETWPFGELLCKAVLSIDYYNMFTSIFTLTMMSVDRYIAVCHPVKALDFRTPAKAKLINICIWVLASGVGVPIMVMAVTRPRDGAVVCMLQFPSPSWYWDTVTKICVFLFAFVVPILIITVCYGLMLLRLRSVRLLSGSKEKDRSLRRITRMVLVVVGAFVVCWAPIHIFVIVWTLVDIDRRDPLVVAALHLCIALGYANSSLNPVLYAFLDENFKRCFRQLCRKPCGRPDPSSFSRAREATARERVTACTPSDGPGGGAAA
EXPERIMENT_SUMMARY: [35S]GTP-γ-S binding assay, hDOR
Assay type: biochemical
CONDITION_INFO: Table 27; read-out: GTP binding hDOR Emax (%)
Peptide text beside a SMILES is read from it.
As shown below, each of these compounds has a reported Emax value.
MEASUREMENT_KIND: Emax (%)

COMPOUND: CC(C)C[C@H](NC(=O)[C@@H]1CCCN1C(=O)CNC(=O)[C@H](Cc1ccccc1)NC(=O)CNC(=O)[C@@H](C)NC(=O)[C@@H](N)Cc1ccc(O)cc1)C(=O)N[C@@H](Cc1c[nH]c2ccccc12)C(=O)OCc1cc(C(F)(F)F)cc(C(F)(F)F)c1 [TY006] (HELM PEPTIDE1{Y.[dA].G.F.G.P.L.W.[FC(F)(F)c1cc(CO[*:1])cc(C(F)(F)F)c1]}$$$$V2.0)
TARGET_OR_TEST_SYSTEM: human δ opioid receptors (hDOR) (Homo sapiens, UniProt P41143)
EXPERIMENTAL_VALUE: 33.6
//
COMPOUND: CCCC[C@H](NC(=O)[C@H](Cc1ccccc1)NC(=O)CNC(=O)[C@@H](C)NC(=O)[C@@H](N)Cc1ccc(O)cc1)C(=O)N1CCC[C@H]1C(=O)N[C@@H](CC(C)C)C(=O)N[C@@H](Cc1c[nH]c2ccccc12)C(=O)OCc1cc(C(F)(F)F)cc(C(F)(F)F)c1
TARGET_OR_TEST_SYSTEM: human δ opioid receptors (hDOR) (Homo sapiens, UniProt P41143)
EXPERIMENTAL_VALUE: 131
//
COMPOUND: CC(C)C[C@H](NC(=O)[C@@H]1CCCN1C(=O)[C@H](CC[S+](C)[O-])NC(=O)[C@H](Cc1ccccc1)NC(=O)CNC(=O)[C@@H](C)NC(=O)[C@@H](N)Cc1ccc(O)cc1)C(=O)N[C@@H](Cc1c[nH]c2ccccc12)C(=O)OCc1cc(C(F)(F)F)cc(C(F)(F)F)c1 (stereo partly shown)
TARGET_OR_TEST_SYSTEM: human δ opioid receptors (hDOR) (Homo sapiens, UniProt P41143)
EXPERIMENTAL_VALUE: 52.8
//
COMPOUND: CC(C)C[C@H](NC(=O)[C@@H]1CCCN1C(=O)[C@H](CC(C)C)NC(=O)[C@H](Cc1ccccc1)NC(=O)CNC(=O)[C@@H](C)NC(=O)[C@@H](N)Cc1ccc(O)cc1)C(=O)N[C@@H](Cc1c[nH]c2ccccc12)C(=O)OCc1cc(C(F)(F)F)cc(C(F)(F)F)c1
TARGET_OR_TEST_SYSTEM: human δ opioid receptors (hDOR) (Homo sapiens, UniProt P41143)
EXPERIMENTAL_VALUE: 42.5

###

pIC50: −log10 of the molar value. Peptide text beside a SMILES is read from it.
human NK1 receptor (hNK1) (Homo sapiens): recorded pIC50 for assorted molecules
Sequence (P25103 whole entry): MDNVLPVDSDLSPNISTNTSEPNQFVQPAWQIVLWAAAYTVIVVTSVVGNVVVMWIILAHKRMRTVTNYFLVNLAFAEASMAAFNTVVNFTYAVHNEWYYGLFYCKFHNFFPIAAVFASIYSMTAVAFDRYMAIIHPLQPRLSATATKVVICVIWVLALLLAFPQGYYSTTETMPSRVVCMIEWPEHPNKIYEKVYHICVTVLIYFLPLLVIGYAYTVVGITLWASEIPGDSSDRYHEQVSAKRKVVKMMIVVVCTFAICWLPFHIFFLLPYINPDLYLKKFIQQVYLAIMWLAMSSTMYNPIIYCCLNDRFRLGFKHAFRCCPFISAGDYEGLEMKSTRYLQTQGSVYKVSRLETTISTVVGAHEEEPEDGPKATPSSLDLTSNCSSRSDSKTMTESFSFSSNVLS
MEASUREMENT_KIND: pIC50

MOLECULE: CCCC[C@@H]1NC(=O)[C@H](Cc2ccccc2)NC(=O)CNC(=O)[C@H](NC(=O)[C@@H](N)Cc2ccc(O)cc2)CSSC[C@@H](C(=O)N[C@@H](Cc2c[nH]c3ccccc23)C(=O)NCc2cc(C(F)(F)F)cc(C(F)(F)F)c2)NC(=O)[C@@H]2CCCN2C1=O [TY035, [D-Cys^2, Cys^7]TY027] (HELM PEPTIDE1{Y.[dC].G.F.[Nle].P.C.W.[FC(F)(F)c1cc(CN[*:1])cc(C(F)(F)F)c1]}$PEPTIDE1,PEPTIDE1,2:R3-7:R3$$$V2.0; N-terminus assumed)
EXPERIMENTAL_VALUE: 9.70
--
MOLECULE: CC(C)C[C@H](NC(=O)[C@@H]1CCCN1C(=O)[C@H](Cc1ccccc1)NC(=O)CNC(=O)[C@@H](C)NC(=O)[C@@H](N)Cc1ccc(O)cc1)C(=O)N[C@@H](Cc1c[nH]c2ccccc12)C(=O)NCc1ccccc1 [TY008, H-Tyr-DAla-Gly-Phe-Pro-Leu-Trp-NH-Bzl]
EXPERIMENTAL_VALUE: 7.50
--
MOLECULE: CC(C)C[C@H](NC(=O)[C@@H]1CCCN1C(=O)[C@H](Cc1ccccc1)NC(=O)CNC(=O)[C@@H](C)NC(=O)[C@@H](N)Cc1ccc(O)cc1)C(=O)N[C@@H](Cc1c[nH]c2ccccc12)C(=O)OCc1ccccc1 [TY011, H-Tyr-DAla-Gly-Phe-Pro-Leu-Trp-O-Bzl]
EXPERIMENTAL_VALUE: 6.70
--
MOLECULE: CC(C)C[C@H](NC(=O)[C@@H]1CCCN1C(=O)[C@H](Cc1ccccc1)NC(=O)CNC(=O)[C@@H](C)NC(=O)[C@@H](N)Cc1ccc(O)cc1)C(=O)N[C@@H](Cc1c[nH]c2ccccc12)C(=O)NCc1cc(C(F)(F)F)cc(C(F)(F)F)c1 [TY012]
EXPERIMENTAL_VALUE: 8.90
--
MOLECULE: CCCC[C@@H]1NC(=O)[C@H](Cc2ccccc2)NC(=O)CNC(=O)[C@H](NC(=O)[C@@H](N)Cc2ccc(O)cc2)CSSC[C@H](C(=O)N[C@@H](Cc2c[nH]c3ccccc23)C(=O)NCc2cc(C(F)(F)F)cc(C(F)(F)F)c2)NC(=O)[C@@H]2CCCN2C1=O [TY038, [D-Cys^2, D-Cys^7]TY027] (HELM PEPTIDE1{Y.[dC].G.F.[Nle].P.[dC].W.[FC(F)(F)c1cc(CN[*:1])cc(C(F)(F)F)c1]}$PEPTIDE1,PEPTIDE1,2:R3-7:R3$$$V2.0; N-terminus assumed)
EXPERIMENTAL_VALUE: 9.30
--
MOLECULE: CC(C)C[C@H](NC(=O)[C@@H]1CCCN1C(=O)[C@H](Cc1ccccc1)NC(=O)CNC(=O)[C@@H](C)NC(=O)[C@@H](N)Cc1ccc(O)cc1)C(=O)N[C@@H](Cc1c[nH]c2ccccc12)C(=O)N(C)Cc1cc(C(F)(F)F)cc(C(F)(F)F)c1 [TY013]
EXPERIMENTAL_VALUE: 8.50

###

TARGET_OR_TEST_SYSTEM: human NK1 receptor (hNK1) (Homo sapiens)
Construct: expressed in transfected cells
EXPERIMENT_SUMMARY: Radioligand competition binding, [3H]-Substance P, hNK1

COMPOUND: N[C@@H](Cc1ccc(O)cc1)C(=O)NCC(=O)N[C@@H](Cc1c[nH]c2ccccc12)C(=O)OCc1cc(C(F)(F)F)cc(C(F)(F)F)c1
Ki (nM): 0.003
//
COMPOUND: CC(C)C[C@H](NC(=O)[C@@H]1CCCN1C(=O)[C@H](CC(C)C)NC(=O)[C@H](Cc1ccccc1)NC(=O)CNC(=O)[C@@H](C)NC(=O)[C@@H](N)Cc1ccc(O)cc1)C(=O)N[C@@H](Cc1c[nH]c2ccccc12)C(=O)OCc1cc(C(F)(F)F)cc(C(F)(F)F)c1
Ki (nM): 0.016
//
COMPOUND: CCCC[C@H](NC(=O)[C@H](Cc1ccccc1)NC(=O)CNC(=O)[C@@H](C)NC(=O)[C@@H](N)Cc1ccc(O)cc1)C(=O)N1CCC[C@H]1C(=O)N[C@@H](CC(C)C)C(=O)N[C@@H](COC1O[C@H](CO)[C@@H](O)[C@H](O)[C@H]1O)C(=O)N[C@@H](Cc1c[nH]c2ccccc12)C(=O)NCc1cc(C(F)(F)F)cc(C(F)(F)F)c1 (stereo partly drawn)
Ki (nM): 0.052
